# TEST_TARGET: SDS-activated 20S proteasome from rabbit muscle (Oryctolagus cuniculus, UniProt G1SU71+G1T4Q9)
# TEST_SUMMARY: Kinetic assay: inhibition of the 20S proteasome
# Type: biochemical
# TEST_CONTEXT: Table II; SDS-activated 20S proteasome from rabbit muscle, substrate Suc-LLVY-AMC
Simple rule here: Ki less than 20 nM is criterion met, otherwise criterion not met.

- COMPOUND: "CC(C)C[C@H](CC(=O)NCc1ccccc1)B(O)O"
  ASSIGNED_CATEGORY: "criterion not met"
- COMPOUND: "CC(=O)N1Cc2ccccc2CC1C(=O)N[C@@H](CC(C)C)B(O)O (some centres unmarked)"
  ASSIGNED_CATEGORY: "criterion not met"
- COMPOUND: "CC(=O)N[C@@H](Cc1c[nH]c2ccccc12)C(=O)N[C@@H](CC(C)C)B(O)O"
  ASSIGNED_CATEGORY: "criterion met"
- COMPOUND: "CO[C@](C(=O)N[C@@H](CC(C)C)B(O)O)(c1ccccc1)C(F)(F)F"
  ASSIGNED_CATEGORY: "criterion not met"
- COMPOUND: "CC(C)C[C@H](NC(=O)[C@H](Cc1c[nH]c2ccccc12)NC(=O)N1CCOCC1)B(O)O"
  ASSIGNED_CATEGORY: "criterion met"
- COMPOUND: "CC(C)C[C@H](NC(=O)[C@@H](N)Cc1cccnc1)B(O)O"
  ASSIGNED_CATEGORY: "criterion not met"
- COMPOUND: "CC(C)C[C@H](NC(=O)NCc1ccccc1)B(O)O"
  ASSIGNED_CATEGORY: "criterion not met"
- COMPOUND: "CC(C)C[C@H](NC(=O)[C@H](Cc1cccc2ccccc12)NS(=O)(=O)c1cccc2cccnc12)B(O)O"
  ASSIGNED_CATEGORY: "criterion met"
- COMPOUND: "CC(C)C[C@H](NC(=O)[C@H](Cc1c[nH]cn1)NC(=O)OCc1ccccc1)B(O)O"
  ASSIGNED_CATEGORY: "criterion not met"
- COMPOUND: "CC(C)C[C@H](NC(=O)[C@H](Cc1ccccc1)NC(=O)c1ccoc1)B(O)O"
  ASSIGNED_CATEGORY: "criterion met"
- COMPOUND: "CC(C)CC(NC(=O)C1NCCc2ccccc21)B(O)O (centres unmarked)"
  ASSIGNED_CATEGORY: "criterion not met"
- COMPOUND: "CC(C)C[C@H](NC(=O)[C@H](Cc1cccc2ccccc12)NC(=O)OCc1ccccc1)B(O)O"
  ASSIGNED_CATEGORY: "criterion met"
- COMPOUND: "CB(O)[C@H](CC(C)C)NC(=O)[C@H](Cc1cccc2ccccc12)NC(=O)N1CCOCC1"
  ASSIGNED_CATEGORY: "criterion not met"

====

# TEST_TARGET: SDS-activated 20S proteasome from rabbit muscle (Oryctolagus cuniculus, UniProt G1SU71+G1T4Q9)
# TEST_SUMMARY: Kinetic assay: inhibition of the 20S proteasome
# Format: biochemical
# TEST_CONTEXT: Table II; SDS-activated 20S proteasome from rabbit muscle, substrate Suc-LLVY-AMC
pKi: −log10 of the molar value.

- COMPOUND_STRUCTURE_STRING: "CC(C)C[C@H](NC(=O)[C@H](Cc1ccccc1)NC(=O)OCc1ccccc1)B(O)O"
  pKi: 9.89
- COMPOUND_STRUCTURE_STRING: "CB(C)[C@H](CC(C)C)NC(=O)[C@H](Cc1cccc2ccccc12)NC(=O)N1CCOCC1"
  pKi: 6.19
- COMPOUND_STRUCTURE_STRING: "CC(C)C[C@H](NC(=O)[C@@H](CC(=O)N1CCOCC1)Cc1cccc2ccccc12)B(O)O"
  pKi: 8.70
- COMPOUND_STRUCTURE_STRING: "CC(C)C[C@H](NC(=O)[C@H](Cc1ccccc1)NC(=O)c1ccc2ccccc2n1)B(O)O"
  pKi: 9.72
